Tested Target: UniProtKB P08908
Sequence (P08908 whole entry): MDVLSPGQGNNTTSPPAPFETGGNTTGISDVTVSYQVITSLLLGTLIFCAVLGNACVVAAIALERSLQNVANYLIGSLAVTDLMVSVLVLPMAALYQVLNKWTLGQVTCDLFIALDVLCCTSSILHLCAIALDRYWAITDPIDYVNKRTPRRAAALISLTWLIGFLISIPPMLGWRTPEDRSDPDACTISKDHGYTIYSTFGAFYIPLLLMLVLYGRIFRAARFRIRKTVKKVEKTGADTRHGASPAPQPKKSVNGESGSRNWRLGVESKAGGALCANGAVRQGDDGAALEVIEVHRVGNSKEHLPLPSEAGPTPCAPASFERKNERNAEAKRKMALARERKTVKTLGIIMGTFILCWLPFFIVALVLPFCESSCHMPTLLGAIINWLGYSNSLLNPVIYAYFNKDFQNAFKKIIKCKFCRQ
Measurement Description: Agonist activity at human 5HT1A receptor expressed in CHO membrane assessed as stimulation of [35S]GTP-gamma-S binding
Reported EC50 values are given for each entry in this list.
Provide only the numeric value, understood in µM.

// below: answered compounds
# Compound, Tested Target, Measurement Units, Assay Value
data = [
    ("CCCN(CCCc1c[nH]c2ccc(F)cc12)C1COc2ccc3ncccc3c2C1 (single isomer, unassigned; (+))", "UniProtKB P08908", "µM", 0.301),
    ("Fc1ccc2[nH]cc(CCCNC3COc4c(ccc5ncccc45)C3)c2c1 (single isomer, unassigned; (-))", "UniProtKB P08908", "µM", 0.172),
    ("Fc1ccc2[nH]cc(CCCNC3COc4c(ccc5ncccc45)C3)c2c1 (single isomer, unassigned; (+))", "UniProtKB P08908", "µM", 0.332),
]

Next up:
In plain terms, Fc1ccc2[nH]cc(CCCNC3COc4ccc5ncccc5c4C3)c2c1 (single isomer, unassigned; (-)) has a documented EC50 of 0.116
